Reference source for all entries: the supplement of paper PMC6757056

B1: library; a variant is named by its letters at N, in order (parent)
chain: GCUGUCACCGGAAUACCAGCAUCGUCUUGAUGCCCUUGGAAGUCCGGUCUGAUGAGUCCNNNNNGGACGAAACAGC

Variants of: B1
assayOverview: FACS-Seq fitted mean relative fluorescence mCherry/BFP without ligand (log10 relative fluorescence); higher = higher reporter protein expression
recordedConditions: HEK293T, ligand present: no
Please mark label 1 if the recorded FACS-Seq fitted mean (log10) is equal to or greater than 0.7, and label 0 if it falls below.

## Task Answer whether FACS-Seq fitted mean (log10) of CUGUA is greater than or equal to 0.7.
## Result label 0

## Task Answer whether FACS-Seq fitted mean (log10) of CACAA is greater than or equal to 0.7.
## Result label 0

## Task Answer whether FACS-Seq fitted mean (log10) of AAGUA is greater than or equal to 0.7.
## Result label 0

## Task Answer whether FACS-Seq fitted mean (log10) of UACAC is greater than or equal to 0.7.
## Result label 1

## Task Answer whether FACS-Seq fitted mean (log10) of GAGCC is greater than or equal to 0.7.
## Result label 1

## Task Answer whether FACS-Seq fitted mean (log10) of CAGAU is greater than or equal to 0.7.
## Result label 1

## Task Answer whether FACS-Seq fitted mean (log10) of GAAUA is greater than or equal to 0.7.
## Result label 1

## Task Answer whether FACS-Seq fitted mean (log10) of UUAAC is greater than or equal to 0.7.
## Result label 1

## Task Answer whether FACS-Seq fitted mean (log10) of ACAAU is greater than or equal to 0.7.
## Result label 0

## Task Answer whether FACS-Seq fitted mean (log10) of ACCUU is greater than or equal to 0.7.
## Result label 1

## Task Answer whether FACS-Seq fitted mean (log10) of AAGAU is greater than or equal to 0.7.
## Result label 1

## Task Answer whether FACS-Seq fitted mean (log10) of UCACC is greater than or equal to 0.7.
## Result label 0
